# credit: patent US20250171423A1

biological target: Human complement C1s enzyme (Homo sapiens, UniProt P09871); construct: purified from human serum, Complement Technology, Inc; purchased Complement Technology, Inc; host or cells: human serum; test: Human C1s Enzyme Assay; format: biochemical; details: human C1s 1.16 nM, 5 min preincubation, substrate Z-L-Lys-SBzl 100 μM, A405; read-out: C1s Protease Activity
pIC50: −log10 of the molar value.
pIC50 values, listed per item

Field: example entries. Status: answers known.
The compound N=C(N)c1csc([C@H](NC(=O)[C@@H]2C[C@@H](OC(F)F)CN2C(=O)CNC(=O)c2ccc(Oc3ccccc3)cc2)C(N)=O)c1 (single isomer, unassigned) [Compound 215] showed pIC50 equal to < 6.00

Note to self: pIC50 recorded for C[C@@H](NC(=O)[C@@H]1C[C@](F)(COCCCCCC(=O)O)CN1C(=O)CNC(=O)c1ccc(Oc2ccccc2)cc1)c1cc(C(=N)N)cs1 [Compound 199] was > 7.00

Lab book: pIC50 of N=C(N)c1csc([C@H](NC(=O)[C@@H]2CC3(CN2C(=O)CNC(=O)CCCOc2ccccc2)OCCO3)c2ccccc2)c1 [Compound 175] noted as < 6.00

compound C[C@@]12C[C@@H]1N(C(=O)CNC(=O)c1ccc3c(c1)-c1ccccc1C3(F)F)[C@H](C(=O)NCc1cc(C(=N)N)cs1)C2 [Compound 103] , pIC50 observed: > 7.00

Value of pIC50 reported for the compound COc1cccc(CNC(=O)[C@@H]2C[C@]3(C)C[C@@H]3N2C(=O)CNC(=O)c2ccc(Oc3ccccc3)cc2)c1 [Compound 42] is < 6.00

Others:
Lookup result for C[C@@H](NC(=O)[C@@H]1CC2(CN1C(=O)CNC(=O)CCCOc1ccccc1)OCCO2)c1cc(C(=N)N)cs1 [Compound 115] ; measured pIC50: > 7.00

The recorded pIC50 for C[C@@H](NC(=O)[C@@H]1C[C@@H](OC(F)F)CN1C(=O)CNC(=O)CCCOc1ccc(F)cc1)c1cc(C(=N)N)cs1 [Compound 108] is > 7.00

Kindly note the recorded pIC50 for C[C@H](NC(=O)[C@@H]1C[C@]2(C)C[C@@H]2N1C(=O)CNC(=O)c1ccc(Oc2ccccc2)cc1)c1cc(-c2ncc[nH]2)cs1 [Compound 254] , which is < 6.00

# pIC50 (compound: C[C@@]12C[C@@H]1N(C(=O)CNC(=O)CCCOc1cccc3ccccc13)[C@H](C(=O)NCc1cc(C(=N)N)cs1)C2 [Compound 207] ) is > 7.00

// field: pIC50; key: C[C@@H](NC(=O)[C@@H]1C[C@@H](S(C)(=O)=O)CN1C(=O)CNC(=O)CCCOc1ccc(F)cc1)c1cc(C(=N)N)cs1 [Compound 107] ; value = > 7.00

// pIC50 value for N=C(N)c1csc(CNC(=O)[C@@H]2CC[C@@H]3CC[C@H](NC(=O)c4ccc(Oc5ccccc5)cc4)C(=O)N32)c1 [Compound 211] : 6.00 to 7.00

Per the records, this compound ( CN(C)C[C@@]1(F)C[C@@H](C(=O)NCc2cc(C(=N)N)cs2)N(C(=O)CNC(=O)CCCOc2ccccc2)C1 [Compound 129] ) has pIC50 equal to > 7.00

---

Target: Human complement C1s enzyme (Homo sapiens)
Construct: purified from human serum, Complement Technology, Inc; purchased Complement Technology, Inc; host or cells: human serum
Sequence (P09871 438-688 limits assumed): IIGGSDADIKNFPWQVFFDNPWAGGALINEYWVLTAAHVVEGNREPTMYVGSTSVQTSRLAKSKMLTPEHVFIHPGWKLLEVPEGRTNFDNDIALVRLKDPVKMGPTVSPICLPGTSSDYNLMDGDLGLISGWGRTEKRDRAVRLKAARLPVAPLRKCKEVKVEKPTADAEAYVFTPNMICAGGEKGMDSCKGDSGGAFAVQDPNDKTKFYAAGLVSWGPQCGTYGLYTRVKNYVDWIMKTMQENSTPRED
Sequence (P09871 16-437 partner limits assumed): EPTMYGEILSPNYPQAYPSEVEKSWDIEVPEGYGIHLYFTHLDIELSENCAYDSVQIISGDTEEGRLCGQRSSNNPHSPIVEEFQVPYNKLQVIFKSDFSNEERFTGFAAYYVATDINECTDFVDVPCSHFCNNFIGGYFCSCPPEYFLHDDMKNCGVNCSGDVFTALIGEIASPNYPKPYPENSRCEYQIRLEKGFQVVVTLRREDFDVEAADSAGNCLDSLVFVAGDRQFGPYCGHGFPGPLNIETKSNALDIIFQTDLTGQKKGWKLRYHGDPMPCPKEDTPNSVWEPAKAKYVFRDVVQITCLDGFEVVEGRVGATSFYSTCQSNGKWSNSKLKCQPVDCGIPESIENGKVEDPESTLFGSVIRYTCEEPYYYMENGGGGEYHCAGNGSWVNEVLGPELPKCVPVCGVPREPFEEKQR
Assay: Human C1s Enzyme Assay
Format: biochemical
Conditions: human C1s 1.16 nM, 5 min preincubation, substrate Z-L-Lys-SBzl 100 μM, A405; read-out: C1s Protease Activity
pIC50: −log10 of the molar value.
ASSAY ENDPOINT: pIC50

`N=C(N)c1csc(CNC(=O)[C@@H]2C[C@H](c3ccc(F)cc3)CN2C(=O)CNC(=O)CCCOc2ccccc2)c1` has a reported pIC50 of > 7.00

Further cases:
Per the records, this compound ( `C[C@@]12C[C@@H]1N(C(=O)CNC1(c3ccc(Oc4ccccc4)cc3)COC1)[C@H](C(=O)NCc1cc(C(=N)N)cs1)C2` ) has pIC50 equal to > 7.00

The compound `C[C@@H](NC(=O)[C@@H]1C[C@@]23COCCCCCCCCCCCCc4cc(ccc4Oc4ccc(F)cc4)C(=O)NCC(=O)N1[C@H]2C3)c1cc(C(=N)N)cs1` showed pIC50 equal to < 6.00

GET /value?item= `[N-]=[N+]=NC[C@@]1(F)C[C@@H](C(=O)NCc2cc(C(=N)N)cs2)N(C(=O)CNC(=O)CCCOc2ccccc2)C1` &field=pIC50 returns > 7.00

---

target: Human complement C1s enzyme (Homo sapiens, UniProt P09871); construct: purified from human serum, Complement Technology, Inc; purchased Complement Technology, Inc; host or cells: human serum; experiment: Human C1s Enzyme Assay; format: biochemical; settings: human C1s 1.16 nM, 5 min preincubation, substrate Z-L-Lys-SBzl 100 μM, A405; read-out: C1s Protease Activity
Counter-ions that a name gives are not always drawn.
ASSAY ENDPOINT: IC50

Answered cases to consult:
`C[C@@H](NC(=O)[C@@H]1C[C@]2(COCCCCCC(=O)O)C[C@@H]2N1C(=O)CNC(=O)CCCOc1ccccc1)c1cc(C(=N)N)cs1` has a reported IC50 of < 100 nM

Data point: `C[C@@H](NC(=O)[C@@H]1C[C@@H](Oc2ccccc2)CN1C(=O)CNC(=O)c1ccc(Oc2ccccc2)cc1)c1cc(C(=N)N)cs1` ; IC50 = < 100 nM

Lab note: measured IC50 of `N=C(N)c1csc(CNC(=O)[C@@H]2CC3(CN2C(=O)CNC(=O)CCCOc2ccc(F)cc2)OCCO3)c1` was < 100 nM

Noted for `CC(=O)NCCOC[C@@]12C[C@@H]1N(C(=O)CNC(=O)c1ccc(Oc3ccccc3)cc1)[C@H](C(=O)NCc1cc(C(=N)N)cs1)C2` : its IC50 reads < 100 nM

Looking up `C[C@@H](NC(=O)[C@@H]1C[C@@H](OC(F)F)CN1C(=O)CNC(=O)c1ccc(Oc2ccccc2)cc1)c1cc(C(=N)N)cs1` , I see its IC50 listed as < 100 nM

Measured IC50, `C[C@@H](NC(=O)[C@@H]1C[C@H](C2CCCCC2)CN1C(=O)CNC(=O)CCCOc1ccccc1)c1cc(C(=N)N)cs1` : < 100 nM

Lab note: `N=C(N)c1csc([C@H](NC(=O)[C@@H]2C[C@@H](OC(F)F)CN2C(=O)CNC(=O)c2ccc(Oc3ccccc3)cc2)c2ccccc2)c1` gave IC50 of > 1000 nM

# IC50 of COC[C@H]1C[C@@H](C(=O)NCc2cc(C(=N)N)cs2)N(C(=O)CNC(=O)c2ccc(Oc3ccccc3)cc2)C1 [Compound 14, hydrochloride] = < 100 nM

Reported IC50 for `N=C(N)c1csc([C@H](CO)NC(=O)[C@@H]2C[C@@H](OC(F)F)CN2C(=O)CNC(=O)c2ccc(Oc3ccccc3)cc2)c1` was < 100 nM

Entry `N=C(N)c1csc(CNC(=O)[C@@H]2C[C@](F)(CF)CN2C(=O)CNC(=O)CCCOc2ccccc2)c1` , IC50 reported as < 100 nM

Continuing:
IC50 measured on `C[C@@H](NC(=O)[C@@H]1CC2(CN1C(=O)CNC(=O)c1ccc(C(=O)c3ccccc3)cc1)OCCO2)c1cc(C(=N)N)cs1` = < 100 nM

The compound identified as `O=C(NCC(=O)N1CC2(C[C@H]1C(=O)NCc1cc(-c3ncc[nH]3)cs1)OCCO2)c1ccc(Oc2ccccc2)cc1` registered its IC50 at < 100 nM

IC50 for `N=C(N)c1csc(CNC(=O)CNC(=O)CNC(=O)c2ccc(Oc3ccccc3)cc2)c1` is 100 to 1000 nM

Short answer for `CC1(C)SCN(C(=O)CNC(=O)CCCOc2ccccc2)[C@@H]1C(=O)NCc1cc(C(=N)N)cs1` : IC50 was 100 to 1000 nM

IC50 for `N=C(N)c1csc(CNC(=O)[C@@H]2C[C@@H](Oc3ccccc3)CN2C(=O)CNC(=O)CCCOc2ccccc2)c1` is < 100 nM
